Entries annotated with measured melting point

Answered examples (3):
mol=Cc1ccc(C(=O)Nc2cccc(C(F)(F)F)c2)cc1-c1ccc2cnncc2c1 readout_kind="melting point" test_value="270 to 272 °C"
mol=Cc1ccc(NC(=O)c2cccc(C(F)(F)F)c2)cc1-c1ccc2ncsc2c1 readout_kind="melting point" test_value="94 to 96 °C"
mol=Cc1ccc(NC(=O)c2cccc(C(F)(F)F)c2)cc1-c1ccc2scnc2c1 readout_kind="melting point" test_value="90 to 93 °C"

Read the next record carefully.
Prompt: Using the record for Cc1ccc(C(=O)Nc2cccc(C(F)(F)F)c2)cc1-c1ccc2scnc2c1 , report its melting point.
Response: 200 to 202 °C

---

Reported melting point values follow for various compounds

mol=Cc1ccc(C(=O)Nc2cccc(C(F)(F)F)c2)cc1-c1ccc2ncsc2c1 test_value="102 to 104 °C"
mol=Cc1ccc(NC(=O)c2cccc(C(F)(F)F)c2)cc1-c1ccc2cnncc2c1 test_value="205 to 206 °C"

Prompt: What value of melting point has been reported for the following compound? Cc1ccc(NC(=O)c2cccc(C(F)(F)F)c2)cc1-c1ccc2ccncc2c1
Response: 148 to 152 °C
